molecular target: T1, Anti-CD28 Fab (SEQ ID NOs: 696, 697); test: phage binding ELISA; biotinylated anti-CD28 Fab on neutravidin plate, bound phage detected with anti-M13 HRP;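 note: crude supernatants of clonal phage screened, wells pretreated with blocking buffer with or without CD28 antigen before brief phage incubation, washed, then bound phage detected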
T1 construct: The Fab was biotinylated and captured on neutravidin coated plates in the phage ELISA
T1 sequence (VH, as listed by the source, chain 1 of 2): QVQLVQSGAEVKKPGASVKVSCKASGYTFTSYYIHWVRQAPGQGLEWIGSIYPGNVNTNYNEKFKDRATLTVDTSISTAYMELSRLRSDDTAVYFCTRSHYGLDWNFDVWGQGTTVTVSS
T1 sequence (VL, as listed by the source, chain 2 of 2): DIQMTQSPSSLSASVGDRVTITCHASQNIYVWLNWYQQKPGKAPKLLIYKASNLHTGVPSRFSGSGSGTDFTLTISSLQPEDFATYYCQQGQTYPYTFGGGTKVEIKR
Parameter: Anti-CD28 Fab (SEQ ID NOs: 696, 697) signal. Scope: all listed entries.
Quantity Kind: Anti-CD28 Fab (SEQ ID NOs: 696, 697) signal

[[record]]
binder = "YCDGHAEEYMSKCL (Tested as clonal phage supernatant) [Phage-759]"
endpoint_result = 1.9

[[record]]
binder = "YCDGHEPQYLEKCL (Tested as clonal phage supernatant) [Phage-758]"
endpoint_result = 1.9

[[record]]
binder = "YCDGHAPEYMKKCL (Tested as clonal phage supernatant) [Phage-756]"
endpoint_result = 1.9

[[record]]
binder = "YCEGHLAQYMWKCL (Tested as clonal phage supernatant) [Phage-750]"
endpoint_result = 1.91

[[record]]
binder = "YCDGHLDIYLAKCL (Tested as clonal phage supernatant) [Phage-753]"
endpoint_result = 1.91

[[record]]
binder = "YCDGHSKEYMHKCL (Tested as clonal phage supernatant) [Phage-757]"
endpoint_result = 1.9

[[record]]
binder = "YCDGHVEEYLYKCL (Tested as clonal phage supernatant) [Phage-760]"
endpoint_result = 1.9

[[record]]
binder = "YCEGHSSEYMEKCL (Tested as clonal phage supernatant) [Phage-752]"
endpoint_result = 1.91


Reference source for all entries: patent US20260242478A1
